- procedure.text: in vitro
- conditions: human, hela cells
Each entry below lists one item and its recorded CC50 value.
attribute.measured: CC50 (µM)

[[record]]
structure_smiles = "CCn1nc(/C=C/c2ccccc2)[n+]([O-])c2c(=O)n(C)c(=O)nc1-2"
unit_text = "µM"
readout_number = 10

[[record]]
structure_smiles = "CCn1nc(-c2ccc(Cl)cc2)nc2c(=O)n(C)c(=O)nc1-2"
unit_text = "µM"
readout_number = 9.93

[[record]]
structure_smiles = "CCn1nc(-c2ccc(C(=O)OC)cc2)nc2c(=O)n(C)c(=O)nc1-2"
unit_text = "µM"
readout_number = 9.58

[[record]]
structure_smiles = "Cn1nc(-c2ccncc2)nc2c(=O)n(C)c(=O)nc1-2"
unit_text = "µM"
readout_number = 8.4

